Data provenance is paper doi:10.1101/2025.03.12.642038.

Measured Target: T1, IRF4 DBD D117H (Homo sapiens, UniProt Q15306 20-132, D117H)
T1 sequence: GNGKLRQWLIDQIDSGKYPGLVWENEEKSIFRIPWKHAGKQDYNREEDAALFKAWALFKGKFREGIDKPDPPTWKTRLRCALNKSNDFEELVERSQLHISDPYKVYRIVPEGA
Test Protocol: FP; FP: PBS + 0.05% Tween20, 5 nM DNA, 1 h, room temperature; SPR: Biacore S200, SA chip, protein 0.1-4500 nM, running buffer not given in material; errors are SD
Recorded Conditions: protein: recombinant; tags: N-terminal His8-linker-His8-TEV, cleaved; label: 3' fluorescein (FAM); hairpin, TTTT loop
Readout: Kd (nM)
Report only the number, with the unit nM understood.

State its Kd: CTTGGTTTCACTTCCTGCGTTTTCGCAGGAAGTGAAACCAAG (structured_DNA) [IRE hairpin (FAM)]
131
